tested on: SF-295; experiment: NCI tumour cell line growth inhibition, 48 h
Activity calls are given as the source filed them. Rule as the data show it: active = GI50 up to about 1.1 µM and inactive = higher.
Experimental readout: GI50

CN(CCCN1CCCC1)CCCN(C)C(=O)Cc1ccc(Cl)c(Cl)c1
17.7 µM (inactive)
CC1=CC(=O)/C(=C/N2CCNC2=S)C(=O)O1
> 100 µM (inactive)
CC(C)CNc1nc(N)nc(O)c1NC=O
> 100 µM (inactive)
COC1CC(Br)(C#N)C1 (configuration not stated)
> 100 µM (inactive)
Cn1[nH]nn/c1=N\N=C\c1ccccc1
> 10 µM (inactive)

Query :: Data request, read-out GI50, for N#Cc1c(-c2ccccc2)c(C#N)c(=S)n(C2OCC(O)C(O)C2O)c1N (configuration not stated)
Result :: > 100 µM (inactive)

Query :: Tell me the measured GI50 of CC(C)(C)C1CC[C@H](O)[C@H]([C@@H](O)CC2CC(=O)N(c3ccccc3)C(=O)C2)C1 (some centres not stated) , please.
Result :: > 100 µM (inactive)
